Test system: genotype 3a (S52) wild type transient HCV replicon in Huh-7-derived cells
Assay: Transient-transfected HCV replicon EC50, genotype 3a wild type
Type: cell-based, hepatitis C virus
Settings: Hepatitis C virus; transient-transfected replicon genotype 3a wild type, 72 h; read-out: EC50 3A WT
Listed here: items and their measured log10(EC50).
test_readout: log10(EC50) (log10 of the value in nM)

compound: CC[C@@H]1[C@@H]2CN(C(=O)[C@H](C(C)(C)C)NC(=O)O[C@@H]3C[C@H]3CCCCCc3nc4ccc(OC)cc4nc3O2)[C@@H]1C(=O)N[C@]1(C(=O)NS(=O)(=O)C2(F)CC2)C[C@H]1C(F)F
log10(EC50): 2.14
--
compound: CC[C@@H]1[C@@H]2CN(C(=O)[C@H](C(C)(C)C)NC(=O)O[C@@H]3C[C@H]3CCCCCc3nc4ccc(OC)cc4nc3O2)[C@@H]1C(=O)N[C@]1(C(=O)NS(=O)(=O)C2(Cl)CC2)C[C@H]1C(F)F
log10(EC50): 1.75
--
compound: CC[C@@H]1[C@@H]2CN(C(=O)[C@H](C(C)(C)C)NC(=O)O[C@]3(C)CCC[C@H]3CCCCCc3nc4ccc(OC)cc4nc3O2)[C@@H]1C(=O)N[C@]1(C(=O)NS(=O)(=O)C2(C)CC2)C[C@H]1CCF
log10(EC50): 2.73
--
compound: CC[C@@H]1[C@@H]2CN(C(=O)[C@H](C(C)(C)C)NC(=O)O[C@@H]3C[C@H]3CCCCCc3nc4ccc(OC)cc4nc3O2)[C@@H]1C(=O)N[C@]1(C(=O)NS(=O)(=O)C2(C)CC2)C[C@H]1C
log10(EC50): 1.65
--
compound: CC[C@@H]1[C@@H]2CN(C(=O)[C@H](C(C)(C)C)NC(=O)O[C@@H]3CCCC[C@H]3CCCCCc3nc4ccc(OC)cc4nc3O2)[C@@H]1C(=O)N[C@]1(C(=O)NS(=O)(=O)C2CC2)C[C@H]1C(F)F
log10(EC50): 2.87
--
compound: COc1ccc2nc3c(nc2c1)O[C@H]1CN(C(=O)[C@H](C(C)(C)C)NC(=O)O[C@@H]2C[C@@H]4C[C@@H]4[C@H]2CCCCC3(F)F)[C@H](C(=O)N[C@]2(C(=O)NS(=O)(=O)C3(C)CC3)C[C@H]2C(F)F)[C@@H]1C
log10(EC50): 0.63
--
compound: C[C@@H]1[C@@H]2CN(C(=O)[C@H](C(C)(C)C)NC(=O)O[C@@H]3C[C@@H]4C[C@@H]4[C@H]3CCCCCc3nc4ccc(F)cc4nc3O2)[C@@H]1C(=O)N[C@]1(C(=O)NS(=O)(=O)C2(C)CC2)C[C@H]1C(F)F
log10(EC50): 1.20
--
compound: C[C@@H]1[C@@H]2CN(C(=O)[C@H](C(C)(C)C)NC(=O)O[C@@H]3C[C@@H]4C[C@@H]4[C@H]3CC/C=C/Cn3c(nc4cc(Cl)ccc4c3=O)O2)[C@@H]1C(=O)N[C@]1(C(=O)NS(=O)(=O)C2(C)CC2)C[C@H]1C(F)F
log10(EC50): 1.08
--
compound: CC[C@@H]1[C@@H]2CN(C(=O)[C@H](C(C)(C)C)NC(=O)O[C@]3(C)CCC[C@H]3CCCCCc3nc4ccc(OC)cc4nc3O2)[C@@H]1C(=O)N[C@]1(C(=O)NS(=O)(=O)C2(C)CC2)C[C@H]1C(F)F
log10(EC50): 1.95
--
compound: CC[C@@H]1[C@@H]2CN(C(=O)[C@H](C(C)(C)C)NC(=O)O[C@]3(C)C[C@H]3CCCCC(F)(F)c3nc4ccc(OC)cc4nc3O2)[C@@H]1C(=O)N[C@]1(C(=O)NS(=O)(=O)C2(C)CC2)C[C@H]1C(F)F
log10(EC50): 0.84
--
compound: CC[C@@H]1[C@@H]2CN(C(=O)[C@H](C(C)(C)C)NC(=O)O[C@@H]3C[C@@H]4C[C@@H]4[C@H]3CCCCC(F)(F)c3nc4ccc(OC)cc4nc3O2)[C@@H]1C(=O)N[C@]1(C(=O)NS(=O)(=O)C2(C)CC2)C[C@H]1C(F)F
log10(EC50): 1.11
--
compound: CC[C@@H]1[C@@H]2CN(C(=O)[C@H](C(C)(C)C)NC(=O)O[C@@H]3C[C@H]3CCCCC(F)(F)c3nc4ccc(OC)cc4nc3O2)[C@@H]1C(=O)NC1(C(=O)NS(=O)(=O)C2(C)CC2)C[C@H]1CC (some centres unmarked)
log10(EC50): 1.41
--
compound: CC[C@@H]1[C@@H]2CN(C(=O)[C@H](C(C)(C)C)NC(=O)O[C@@H]3C[C@@H]4C[C@@H]4[C@H]3CCCCCc3nc4ccc(OC)cc4nc3O2)[C@@H]1C(=O)N[C@]1(C(=O)NS(=O)(=O)C2CC2)C[C@H]1C(F)F
log10(EC50): 1.23
--
compound: CC[C@@H]1[C@@H]2CN(C(=O)[C@H](C(C)(C)C)NC(=O)O[C@@H]3C[C@H]3CCCCC(F)c3nc4ccc(OC)cc4nc3O2)[C@@H]1C(=O)N[C@]1(C(=O)NS(=O)(=O)C2(C)CC2)C[C@H]1C(F)F (some centres unmarked)
log10(EC50): 1.63
--
compound: CCOc1ccc2nc3c(nc2c1)O[C@H]1CN(C(=O)[C@H](C(C)(C)C)NC(=O)O[C@@H]2C[C@H]2CCCCC3)[C@H](C(=O)N[C@]2(C(=O)NS(=O)(=O)C3(C)CC3)C[C@H]2C(F)F)[C@@H]1CC
log10(EC50): 1.62
--
compound: COc1ccc2nc3c(nc2c1)O[C@H]1CN(C(=O)[C@H](C(C)(C)C)NC(=O)O[C@@H]2CCCC[C@H]2CCCCC3(F)F)[C@H](C(=O)N[C@]2(C(=O)NS(=O)(=O)C3CC3)C[C@H]2C(F)F)[C@@H]1C
log10(EC50): 2.14
--
compound: COc1ccc2nc3c(nc2c1)O[C@H]1CN(C(=O)[C@H](C(C)(C)C)NC(=O)O[C@@H]2C[C@@H]4C[C@@H]4[C@H]2CCCCC3(F)F)[C@H](C(=O)N[C@]2(C(=O)NS(=O)(=O)C3CC3)C[C@H]2C(F)F)[C@@H]1C
log10(EC50): 0.60
